Data provenance: patent US20110306638A1

# key: entry, value: inhibition at 10 µM
Target: 5-HT reuptake by brain synapses (Rattus norvegicus)
Construct: forehead cortex was obtained for [^3H]5-HT, [^3H]NA reuptake test; from tissue; host or cells: rat (SD) forebrain cortex synaptosomes
Sequence (P31652 whole entry): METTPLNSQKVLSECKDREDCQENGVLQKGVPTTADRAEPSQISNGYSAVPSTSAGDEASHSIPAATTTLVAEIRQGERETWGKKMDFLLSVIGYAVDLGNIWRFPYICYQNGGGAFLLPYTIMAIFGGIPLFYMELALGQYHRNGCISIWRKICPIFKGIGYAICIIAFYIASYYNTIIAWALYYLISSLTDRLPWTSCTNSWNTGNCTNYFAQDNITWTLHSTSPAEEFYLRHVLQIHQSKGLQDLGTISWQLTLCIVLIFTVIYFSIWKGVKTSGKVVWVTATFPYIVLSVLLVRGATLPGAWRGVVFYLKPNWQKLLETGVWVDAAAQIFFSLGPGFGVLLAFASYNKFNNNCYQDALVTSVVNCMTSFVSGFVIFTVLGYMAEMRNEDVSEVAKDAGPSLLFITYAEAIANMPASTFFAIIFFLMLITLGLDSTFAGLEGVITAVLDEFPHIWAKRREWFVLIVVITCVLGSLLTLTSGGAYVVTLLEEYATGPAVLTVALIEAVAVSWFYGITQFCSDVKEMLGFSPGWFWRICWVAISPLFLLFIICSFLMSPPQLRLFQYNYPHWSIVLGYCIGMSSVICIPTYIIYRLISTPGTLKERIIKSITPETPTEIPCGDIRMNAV
Experiment: [3H]5-HT reuptake test in rat brain synapses
Type: biochemical
Conditions: final concentration 10 umol/L, rat brain synapses; read-out: 5-HTU [3H] 5-HT reuptake inhibition percentage Mean

Fc1ccc2c(C3CCN(CCCCn4cnc5ccc(F)cc54)CC3)noc2c1 [III-2] ... 86%
N#Cc1ccc2cnn(CCCCN3CCC(c4noc5cc(F)ccc45)CC3)c2c1 [II-14] ... 88.3%
N#Cc1ccc2ccn(CCCCN3CCC(c4noc5cc(F)ccc45)CC3)c2c1 [II-9] ... 105%

N#Cc1ccc2ccn(CCCN3CCC(c4noc5cc(F)ccc45)CC3)c2c1 [II-6] yielded inhibition at 10 µM of 96.7%

Fc1ccc2c(C3CCN(CCCCn4ccc5ccc(F)cc54)CC3)noc2c1 [II-8] yielded inhibition at 10 µM of 107%

Fc1ccc2c(C3CCN(CCCCn4ccc5ccccc54)CC3)noc2c1 [II-3] yielded inhibition at 10 µM of 95.9%
